assay: in vitro; conditions: rat, liver microsomes
Description: Half life in rat liver microsomes at 1 uM after 20 mins
property.label: half-life at 20 min, 1 µM (min)
Give bare numbers, in min.

INSERT INTO measurements (smiles_string, endpoint_unit, measured_value) VALUES
  ('COc1cc(N2CCN(C3CCN(c4ccc(F)c5ccc(C(F)(F)F)nc45)CC3)CC2)c2ncccc2c1', 'min', 3);

Batch lookup, half-life at 20 min, 1 µM per entry.
1. COc1cc(N2CCN(C3CCN(c4ccc(F)c5cc(C(F)(F)F)cnc45)CC3)CC2)c2ncccc2c1
2. COc1cc(N2CCN(C3CCN(c4ccc(F)c5cccnc45)CC3)CC2)c2ncccc2c1
3. COc1cc(N2CCN(C3CCN(c4cc(F)cc5cccnc45)CC3)CC2)c2ncccc2c1
4. COc1cc(N2CCN(C3CCN(c4c(F)ccc5cccnc45)CC3)CC2)c2ncccc2c1

Output:
1. 9
2. 2
3. 2
4. 3
